TARGET_SYSTEM: KiSS-1 receptor (Homo sapiens, UniProt Q969F8)
Sequence (Q969F8 whole entry): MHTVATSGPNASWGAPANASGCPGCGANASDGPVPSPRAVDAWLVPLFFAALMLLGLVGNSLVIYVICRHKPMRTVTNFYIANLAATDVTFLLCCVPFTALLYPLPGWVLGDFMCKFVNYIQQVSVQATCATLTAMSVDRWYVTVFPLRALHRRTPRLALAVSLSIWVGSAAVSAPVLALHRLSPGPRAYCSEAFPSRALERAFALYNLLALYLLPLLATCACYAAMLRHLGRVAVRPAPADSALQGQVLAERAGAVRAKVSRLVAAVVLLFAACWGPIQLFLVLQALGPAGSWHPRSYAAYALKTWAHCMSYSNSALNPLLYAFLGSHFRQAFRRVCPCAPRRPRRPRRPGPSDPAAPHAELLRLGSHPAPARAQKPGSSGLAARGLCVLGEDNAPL
EXPERIMENT_DESCRIPTION: Agonist activity at GPR54 expressed in CHO cells assessed as intracellular calcium mobilization
MEASURED_QUANTITY: EC50 (nM)
Numbers only, in nM.

CC(C)C[C@H](NC(=O)CNC(=O)[C@H](Cc1ccccc1)NC(=O)c1ccc[nH]1)C(=O)N[C@@H](CCCN=C(N)N)C(=O)N[C@@H](Cc1c[nH]c2ccccc12)C(N)=O :: 2
CC(C)C[C@H](NC(=O)CNC(=O)[C@H](Cc1ccccc1)NC(=O)c1cccnc1)C(=O)N[C@@H](CCCNC(=N)N)C(=O)N[C@@H](Cc1c[nH]c2ccccc12)C(N)=O :: 3
CC(C)C[C@H](NC(=O)CNC(=O)[C@H](Cc1ccccc1)NC(=O)c1ccc(NC(=N)N)cc1)C(=O)N[C@@H](CCCNC(=N)N)C(=O)N[C@@H](Cc1c[nH]c2ccccc12)C(N)=O :: 1.7

Please state, for each entry, its recorded EC50.
1. CC(C)C[C@H](NC(=O)CNC(=O)[C@H](Cc1ccccc1)NC(=O)c1ccc([N+](=O)[O-])cc1)C(=O)N[C@@H](CCCNC(=N)N)C(=O)N[C@@H](Cc1c[nH]c2ccccc12)C(N)=O
2. CC(C)C[C@H](NC(=O)CNC(=O)[C@H](Cc1ccccc1)NC(=O)c1ccncc1)C(=O)N[C@@H](CCCNC(=N)N)C(=O)N[C@@H](Cc1c[nH]c2ccccc12)C(N)=O
3. CC(C)C[C@H](NC(=O)CNC(=O)[C@H](Cc1ccccc1)NC(=O)c1ccccc1O)C(=O)N[C@@H](CCCN=C(N)N)C(=O)N[C@@H](Cc1c[nH]c2ccccc12)C(N)=O

Result block:
1
1.7
5
